Data origin, for the record: patent US20070225344A1

Documented log10(IC50) across a set of molecules
Target: HCV RdRp NS5B d21BK (BK strain, 1b subtype) (Hepatitis C virus genotype 1b)
Construct: NS5B from the BK strain (1b subtype) is expressed in E. coli as a protein in which the 21 C-terminal amino acids are replaced; made in house; host or cells: E. coli
Sequence (P26663 2420-2997, looked up, natural form): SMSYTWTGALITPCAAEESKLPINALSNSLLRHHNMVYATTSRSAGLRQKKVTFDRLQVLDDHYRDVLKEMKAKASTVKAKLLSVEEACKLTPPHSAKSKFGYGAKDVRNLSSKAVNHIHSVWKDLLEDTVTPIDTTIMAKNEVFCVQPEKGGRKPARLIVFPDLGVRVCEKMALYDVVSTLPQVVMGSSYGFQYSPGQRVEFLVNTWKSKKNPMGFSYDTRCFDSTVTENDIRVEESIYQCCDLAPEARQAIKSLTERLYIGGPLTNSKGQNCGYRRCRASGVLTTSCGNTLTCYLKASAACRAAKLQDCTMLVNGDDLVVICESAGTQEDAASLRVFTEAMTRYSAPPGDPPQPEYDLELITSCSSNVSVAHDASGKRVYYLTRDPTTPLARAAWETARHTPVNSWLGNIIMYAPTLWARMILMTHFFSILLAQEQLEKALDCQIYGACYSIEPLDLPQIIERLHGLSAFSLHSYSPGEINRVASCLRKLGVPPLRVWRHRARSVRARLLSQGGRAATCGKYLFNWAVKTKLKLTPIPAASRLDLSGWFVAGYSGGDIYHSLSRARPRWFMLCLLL
Assay: HCV polymerase (NS5B) RNA-dependent RNA polymerase inhibition, 33P-GTP filter assay
Type: biochemical
Settings: in vitro; NS5B BK strain (1b subtype), 24 nM enzyme, 2 h at room temperature; read-out: HCV Polymerase Median IC50
Text: The ability of the compounds of the present invention to inhibit hepatitis C polymerase was established by the following experimental procedure: NS5B from the BK strain (1b subtype) is expressed in E. coli as a protein in which the 21 C-terminal amino acids are replaced with a short linker and a hexahistidine tag (GSHHHHHH). […] The radioactive product is captured on a filter and quantitated after removal of the unincorporated nucleotides. […]
quantity: log10(IC50) (log10 of the value in nM)

>  <molecule>
O=C(O)[C@H]1CSCN1S(=O)(=O)c1cc(Cl)cc(Cl)c1O [Example 51]

>  <log10(IC50)>
3.23

$$$$
>  <molecule>
O=C(O)[C@@H]1C[C@@H](O)CN1S(=O)(=O)c1cc(Br)cc(Br)c1O [Example 6]

>  <log10(IC50)>
2.66

$$$$
>  <molecule>
Cc1cc(N)c(S(=O)(=O)N2CSC[C@H]2C(=O)O)cc1Cl [Example 58]

>  <log10(IC50)>
3.30

$$$$
>  <molecule>
Cc1cc(N)c(S(=O)(=O)N2CCCC[C@@H]2C(=O)O)cc1Cl [Example 44]

>  <log10(IC50)>
3.90

$$$$
>  <molecule>
Cc1cc(S(=O)(=O)N2C[C@H](O)C[C@H]2C(=O)O)c(N)cc1Cl [Example 28]

>  <log10(IC50)>
4.00

$$$$
>  <molecule>
O=C(O)[C@@H]1CSCN1S(=O)(=O)c1cc(Cl)cc(Br)c1O [Example 56]

>  <log10(IC50)>
4.05

$$$$
>  <molecule>
O=C(O)[C@H]1CCCN1S(=O)(=O)c1cc(Br)cc(Br)c1O [Example 27]

>  <log10(IC50)>
3.85

$$$$
>  <molecule>
Cc1cc(N)c(S(=O)(=O)N2CCC[C@@H]2C(=O)O)cc1Cl [Example 17]

>  <log10(IC50)>
3.67

$$$$
>  <molecule>
CCC(=O)[C@@H]1CCCN1S(=O)(=O)c1cc(Cl)cc(Cl)c1O [Example 29]

>  <log10(IC50)>
3.86

$$$$
>  <molecule>
O=C(O)[C@@H]1CCCN1S(=O)(=O)c1cc(Cl)c(Cl)c(Cl)c1O [Example 4]

>  <log10(IC50)>
1.90

$$$$
>  <molecule>
O=C(O)[C@H]1CCCCN1S(=O)(=O)c1cc(Cl)cc(Br)c1O [Example 40]

>  <log10(IC50)>
3.06

$$$$
>  <molecule>
CO[C@@H]1C[C@@H](C(=O)O)N(S(=O)(=O)c2cc(Cl)cc(Cl)c2O)C1 [Example 12]

>  <log10(IC50)>
2.96

$$$$
>  <molecule>
O=S(=O)(c1cc(Cl)cc(Cl)c1O)N1CCCC1 [Example 23]

>  <log10(IC50)>
3.69

$$$$
>  <molecule>
O=C(O)[C@H]1CCCCN1S(=O)(=O)c1cc(Cl)c(Cl)c(Cl)c1O [Example 38]

>  <log10(IC50)>
2.58

$$$$
>  <molecule>
O=C(O)[C@H]1CSCN1S(=O)(=O)c1cc(Cl)c(Cl)c(Cl)c1O [Example 46]

>  <log10(IC50)>
2.41

$$$$
>  <molecule>
N#C[C@@H]1CCCN1S(=O)(=O)c1cc(Cl)cc(Cl)c1O [Example 2]

>  <log10(IC50)>
3.02

$$$$
>  <molecule>
O=S(=O)(c1cc(Cl)cc(Cl)c1O)N1CCC[C@H]1c1nn[nH]n1 [Example 1]

>  <log10(IC50)>
2.75

$$$$
>  <molecule>
Cc1cc(N)c(S(=O)(=O)N2C[C@H](O)C[C@H]2C(=O)O)cc1Cl [Example 25]

>  <log10(IC50)>
3.88

$$$$
>  <molecule>
O=C(O)[C@H]1CSCN1S(=O)(=O)c1cc(F)cc(Cl)c1O [Example 57]

>  <log10(IC50)>
4.16

$$$$
>  <molecule>
Cc1cc(S(=O)(=O)N2CSC[C@@H]2C(=O)O)c(N)cc1Cl [Example 55]

>  <log10(IC50)>
3.88

$$$$
>  <molecule>
O=C(O)[C@H]1CCCCN1S(=O)(=O)c1cc(Cl)cc(Cl)c1O [Example 42]

>  <log10(IC50)>
3.30

$$$$
>  <molecule>
O=C(O)[C@H]1C[C@H](O)CN1S(=O)(=O)c1cc(Cl)c(Cl)c(Cl)c1O [Example 15]

>  <log10(IC50)>
3.09

$$$$
>  <molecule>
O=C(O)[C@@H]1CCCCN1S(=O)(=O)c1cc(Cl)cc(Cl)c1O [Example 43]

>  <log10(IC50)>
3.85

$$$$
>  <molecule>
CC(=O)[C@@H]1CCCN1S(=O)(=O)c1cc(Cl)cc(Cl)c1O [Example 16]

>  <log10(IC50)>
3.42

$$$$
>  <molecule>
O=C(O)[C@H]1CCCN1S(=O)(=O)c1cc(Br)cc(Cl)c1O [Example 22]

>  <log10(IC50)>
3.68

$$$$
>  <molecule>
O=C(O)[C@@H]1CCCCN1S(=O)(=O)c1cc(F)cc(Cl)c1O [Example 41]

>  <log10(IC50)>
3.28

$$$$
>  <molecule>
O=C(O)[C@@H]1CCCN1S(=O)(=O)c1cc(Cl)cc(Cl)c1O [Example 11]

>  <log10(IC50)>
2.95

$$$$
>  <molecule>
O=C(O)[C@@H]1CCCN1S(=O)(=O)c1cc(Cl)c(Cl)cc1Cl [Example 36]

>  <log10(IC50)>
4.34

$$$$
>  <molecule>
Cc1cc(NC(=O)C2CC2)c(S(=O)(=O)N2CCC[C@H]2C(=O)O)cc1Cl [Example 33]

>  <log10(IC50)>
3.94

$$$$
>  <molecule>
O=C(O)[C@@H]1CSCN1S(=O)(=O)c1cc(F)cc(Cl)c1O [Example 49]

>  <log10(IC50)>
3.33

$$$$
>  <molecule>
O=C(O)[C@@H]1CCCCN1S(=O)(=O)c1cc(Cl)c(Cl)c(Cl)c1O [Example 37]

>  <log10(IC50)>
1.90

$$$$
>  <molecule>
O=S(=O)(c1cc(Cl)cc(Cl)c1O)N1CCSC1 [Example 52]

>  <log10(IC50)>
3.37

$$$$
